Recorded values, source ChEMBL document CHEMBL4219085.

List of Kd values.
- Target Or Test System: D-amino-acid oxidase (Sus scrofa)
- Sequence (P00371 whole entry): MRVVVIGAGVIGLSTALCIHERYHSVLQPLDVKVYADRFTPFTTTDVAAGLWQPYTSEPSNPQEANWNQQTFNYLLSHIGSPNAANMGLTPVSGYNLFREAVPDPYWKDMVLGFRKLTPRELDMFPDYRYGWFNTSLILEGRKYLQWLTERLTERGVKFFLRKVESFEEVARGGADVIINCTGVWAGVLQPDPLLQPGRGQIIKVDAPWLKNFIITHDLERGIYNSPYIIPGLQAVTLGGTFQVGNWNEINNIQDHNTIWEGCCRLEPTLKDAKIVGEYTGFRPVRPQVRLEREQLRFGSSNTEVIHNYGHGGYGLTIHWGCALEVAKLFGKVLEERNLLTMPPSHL
Only the number, expressed in nM, is required.

Take a look at these entries with their results.
>>> df
              cpd_smiles  endpoint_name  test_result
0   Oc1n[nH]c2ccc(F)cc12             Kd         1200
1  Oc1n[nH]c2cc(Cl)ccc12             Kd         2000
2  O=c1[nH][nH]c2ccccc12             Kd         4430

Qu. Give D-amino-acid oxidase (Sus scrofa) Kd for Oc1n[nH]c2c(Cl)cccc12
Ans. 3310

Qu. Request - read-out Kd | tested on D-amino-acid oxidase (Sus scrofa) | compound Oc1noc2cc(Cl)ccc12
Ans. 870

Qu. I'm curious: which Kd was measured for O=c1[nH][nH]c2ccc(Br)cc12 tested on D-amino-acid oxidase (Sus scrofa)?
Ans. 3290

----------
- Method Summary: Intrinsic clearance in human primary hepatocytes at 1 uM up to 240 mins by LC-MS/MS analysis
- Type: ADME, cell-based, Hepatocyte
- Condition Notes: read-out: CLH
Endpoint Name: CLint scaled at 1 µM (mL/min/kg)
Field format: number, assumed mL/min/kg, no unit text.

              cpd_smiles  measurement_units  test_result
0  Oc1n[nH]c2cc(Cl)ccc12          mL/min/kg         2.54

Qu. Which CLint scaled at 1 µM reading was recorded for the compound Oc1n[nH]c2cc(F)ccc12 ?
Ans. 2.78

----------
- Method Summary: Dissociation constant, pKa of the compound by UV-spectrophotometric titration method
- Type: physicochemical
# reported pKa; entries follow
Answer field: number only, no words.

// known answers, use as guide
>>> df
              cpd_smiles  test_result
0  Oc1n[nH]c2c(Cl)cccc12         7.28
1  Oc1n[nH]c2cc(Cl)ccc12         7.59
2  Oc1n[nH]c2cccc(Br)c12         7.51
3  O=c1[nH][nH]c2ccccc12         8.16

Qu. Recorded pKa of O=[N+]([O-])c1ccc2c(O)[nH]nc2c1 , please.
Ans. 6.52

Qu. Using the record for O=C1Nc2c(Cl)cccc2C1=O , report its pKa.
Ans. 9.44

Qu. // lookup pKa for Oc1n[nH]c2cc(F)ccc12
Ans. 7.84

Qu. So what's the measured pKa for this one? Oc1n[nH]c2cccc(Cl)c12
Ans. 7.51

Qu. Using the record for Oc1n[nH]c2ccc(Cl)cc12 , report its pKa.
Ans. 7.53

----------
- Method Summary: Intrinsic clearance in human hepatic microsomes at 1 uM up to 90 mins by LC-MS/MS analysis
- Format: ADME, microsome
- Condition Notes: liver microsomes, read-out: CLH
Endpoint Name: CLint scaled at […], 1 µM (mL/min/kg)
State the answer as a number, implicitly in mL/min/kg.

>>> df
             cpd_smiles  measurement_units  test_result
0  Oc1n[nH]c2cc(F)ccc12          mL/min/kg          0.9

For the next question, use this compound.
Qu. Find the recorded CLint scaled at […], 1 µM belonging to Oc1n[nH]c2cc(Cl)ccc12 and report it.
Ans. 0.76

----------
- Target Or Test System: UniProtKB P14920
- Sequence (P14920 whole entry): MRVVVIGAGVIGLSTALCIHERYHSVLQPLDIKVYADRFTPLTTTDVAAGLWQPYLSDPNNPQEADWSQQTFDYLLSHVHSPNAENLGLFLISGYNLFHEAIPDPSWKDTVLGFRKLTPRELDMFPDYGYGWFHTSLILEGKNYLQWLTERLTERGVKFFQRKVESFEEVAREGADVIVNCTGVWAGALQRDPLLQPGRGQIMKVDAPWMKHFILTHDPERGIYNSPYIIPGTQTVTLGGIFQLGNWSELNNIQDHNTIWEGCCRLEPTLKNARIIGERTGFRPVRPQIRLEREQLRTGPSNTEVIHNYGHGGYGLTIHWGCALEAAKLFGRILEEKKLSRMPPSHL
- Method Summary: Inhibition of human DAAO using D-KYN as substrate preincubated for 20 mins followed by substrate addition measured after 30 mins by FP-6300-based fluorescence spectrometry
Endpoint Name: IC50 (µM)
Unit µM implied. Number only.

>>> print(df.to_string())
                        cpd_smiles  measurement_units  test_result
0            Oc1n[nH]c2c(Cl)cccc12                 µM         10.1
1                   Oc1noc2ccccc12                 µM        0.418
2  O=[N+]([O-])c1ccc2c(O)[nH]nc2c1                 µM          1.2

Next up:
Qu. Which IC50 is listed for Cc1cccc2c1NC(=O)C2=O ?
Ans. 13.1

----------
- Method Summary: Intrinsic clearance in NMRI mouse primary hepatocytes at 1 uM up to 240 mins by LC-MS/MS analysis
- Assay type: ADME, cell-based, Hepatocyte
- Condition Notes: read-out: CLH
Endpoint Name: CLint scaled at 1 µM (mL/min/kg)
Form entry: value (mL/min/kg) — number only.

>>> print(df.to_string())
             cpd_smiles         endpoint_name  test_result
0  Oc1n[nH]c2cc(F)ccc12  CLint scaled at 1 µM           20

Read the next record carefully.
Qu. Return reported CLint scaled at 1 µM; argument: Oc1n[nH]c2cc(Cl)ccc12
Ans. 68.2

----------
Listed here: items and their measured Papp at 4 h.
- Method Summary: Effective permeability of the compound after 4 hrs at pH 5.5 to 7.4 by PAMPA
- Assay type: ADME
- Condition Notes: read-out: Peff

>>> df
             cpd_smiles     test_result
0  Oc1n[nH]c2cc(F)ccc12  1.2 ×10⁻⁶ cm/s

Now for the molecule whose Papp at 4 h we want.
Qu. Query: Papp at 4 h; subject: Oc1n[nH]c2cc(Cl)ccc12
Ans. 9.53 ×10⁻⁶ cm/s

----------
Parameter Papp at 4 h: see the listing below.
- Method Summary: Effective permeability of the compound after 4 hrs at pH 7.4 by PAMPA
- Type: ADME
- Condition Notes: read-out: Peff
Lab book: enter the figure in ×10⁻⁶ cm/s, no units written.

Qu. Can you share its Papp at 4 h? I mean this compound: Oc1n[nH]c2cc(Cl)ccc12
Ans. 4.47

Qu. What Papp at 4 h value was documented for this compound, Oc1n[nH]c2cc(F)ccc12 ?
Ans. 0.72

----------
- Method Summary: Elimination half life in NMRI mouse primary hepatocytes at 1 uM up to 240 mins by LC-MS/MS analysis
- Format: ADME, cell-based, Hepatocyte
- Condition Notes: read-out: beta t1/2
Endpoint Name: half-life at 1 µM (h)
A number alone suffices; assume h.

>>> df
             cpd_smiles  test_result
0  Oc1n[nH]c2cc(F)ccc12         2.97

Let us examine a further case.
Qu. Look at this molecule and give its reported half-life at 1 µM. Oc1n[nH]c2cc(Cl)ccc12
Ans. 0.87

----------
Entries annotated with measured CLint scaled at […], 1 µM
- Method Summary: Intrinsic clearance in NMRI mouse hepatic microsomes at 1 uM up to 90 mins by LC-MS/MS analysis
- Format: ADME, microsome
- Condition Notes: liver microsomes, read-out: CLH
The reply should contain only the number, in mL/min/kg.

>>> df
             cpd_smiles  test_result
0  Oc1n[nH]c2cc(F)ccc12         8.29

# next compound below
Qu. Look at this compound and give its reported CLint scaled at […], 1 µM. Oc1n[nH]c2cc(Cl)ccc12
Ans. 11.7

----------
- Method Summary: Elimination half life in NMRI mouse hepatic microsomes at 1 uM up to 90 mins by LC-MS/MS analysis
- Format: ADME, microsome
- Condition Notes: liver microsomes, read-out: beta t1/2
Each entry below carries its recorded half-life at […], 1 µM.

Qu. Return reported half-life at […], 1 µM; argument: Oc1n[nH]c2cc(F)ccc12
Ans. 1.33 h

Qu. Would you mind telling me what half-life at […], 1 µM value was observed for Oc1n[nH]c2cc(Cl)ccc12 ?
Ans. 0.942 h

----------
Entries and their Papp at 4 h
- Method Summary: Effective permeability of the compound after 4 hrs at pH 6.5 to 7.4 by PAMPA
- Format: ADME
- Condition Notes: read-out: Peff
Quick reminder: number only, in ×10⁻⁶ cm/s, skip the unit.

In [3]: df
Out[3]:
             cpd_smiles  measurement_units  test_result
0  Oc1n[nH]c2cc(F)ccc12         ×10⁻⁶ cm/s         0.97

Qu. Using the record for Oc1n[nH]c2cc(Cl)ccc12 , report its Papp at 4 h.
Ans. 7.43
